studySystem: tissue factor/factor VIIa (Homo sapiens, UniProt P08709)
Sequence (P08709 213-466 limits assumed): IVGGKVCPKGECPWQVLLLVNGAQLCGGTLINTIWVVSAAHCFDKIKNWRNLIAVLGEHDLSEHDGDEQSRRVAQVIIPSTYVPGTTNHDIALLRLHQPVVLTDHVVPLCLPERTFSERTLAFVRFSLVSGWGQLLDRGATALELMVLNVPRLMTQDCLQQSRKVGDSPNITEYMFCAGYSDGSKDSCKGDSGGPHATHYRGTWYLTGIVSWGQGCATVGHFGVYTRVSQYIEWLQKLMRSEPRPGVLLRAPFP
Sequence (P08709 61-212 limits assumed): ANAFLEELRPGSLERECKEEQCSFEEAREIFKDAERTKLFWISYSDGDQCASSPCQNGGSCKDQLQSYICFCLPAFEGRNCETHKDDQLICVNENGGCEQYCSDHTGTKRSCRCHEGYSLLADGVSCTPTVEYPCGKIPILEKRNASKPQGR
Sequence (P13726 33-251 partner limits assumed): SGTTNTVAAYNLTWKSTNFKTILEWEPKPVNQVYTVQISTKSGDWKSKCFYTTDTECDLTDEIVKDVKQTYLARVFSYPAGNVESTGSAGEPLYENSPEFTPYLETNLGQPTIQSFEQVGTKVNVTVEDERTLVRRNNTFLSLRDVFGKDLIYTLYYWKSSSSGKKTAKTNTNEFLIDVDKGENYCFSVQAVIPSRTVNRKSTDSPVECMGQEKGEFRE
testMethodNotes: Tissue Factor/Factor VIIa antagonist assay (chromogenic, Ki)
assayContext: 10 nM VIIa, 30 nM TF, Chromozym-tPA 1.33 mM; read-out: binding affinity to serine proteases: VIIa
Reported Ki by item:

Take a look at these entries with their results.
[[record]]
compoundstring = "CN(C(=O)[C@@H]1C[C@@H](Oc2cccc(C(=N)N)c2)CN1)c1ccccc1"
observedvalue = "156 µM"

[[record]]
compoundstring = "N=C(N)c1cccc(O[C@H]2CN[C@H](C(=O)N[C@@H](CCC(=O)O)C(=O)O)C2)c1"
observedvalue = "≥ 390 µM"

[[record]]
compoundstring = "C=CCNC(=O)[C@@H]1C[C@@H](Oc2cccc(C(=N)N)c2)CN1"
observedvalue = "≥ 390 µM"

[[record]]
compoundstring = "N=C(N)c1ccc(NC(=O)[C@@H]2C[C@@H](Oc3cccc(C(=N)N)c3)CN2C2CCCCC2)cc1"
observedvalue = "> 39 µM"

[[record]]
compoundstring = "N=C(N)c1cccc(O[C@H]2CN[C@H](C(=O)Nc3ccc(-c4ccccc4)cc3)C2)c1"
observedvalue = "≥ 390 µM"

[[record]]
compoundstring = "N#Cc1ccc(NC(=O)[C@@H]2C[C@@H](Oc3cccc(C(=N)N)c3)CN2)cc1"
observedvalue = "156 µM"

[[record]]
compoundstring = "N=C(N)c1cccc(O[C@H]2CN[C@H](C(=O)N3CCCCC3)C2)c1"
observedvalue = "94 µM"


Recorded Ki of COc1ccc(CNC(=O)[C@@H]2C[C@@H](Oc3cccc(C(=N)N)c3)CN2S(=O)(=O)c2ccccc2)cc1 , please.
> 195 µM
